Test system: HIV-IIIb
Assay: Test A: Antiviral Assay in MT4 Cells
Assay type: cell-based
Conditions: Table 1; MT-4 cells infected with HIV-IIIb, 5 days of incubation, CellTiter-Glo; read-out: EC50
Please go through the items and note down their pEC50.
# pEC50: negative log10 of molar concentration; output just the value

The compound listed as Cc1cc2nc(N3CCCC3)sc2c(-c2ccc3c4c(ccnc24)CCO3)c1[C@H](OC(C)(C)C)C(=O)O (atropisomer, axis not shown) [Compound 50] shows pEC50 equal to 7.28

The compound listed as COC1CN(c2nc3cc(C)c([C@H](OC(C)(C)C)C(=O)O)c(-c4ccc5c6c(ccnc46)CCO5)c3s2)C1 (atropisomer, axis not shown) [Compound 54] shows pEC50 equal to 6.56

The compound listed as Cc1cc2nc(-c3cccc(-c4ccc5c(cnn5C)c4)c3)sc2c(-c2ccc3c4c(ccnc24)CCO3)c1[C@H](OC(C)(C)C)C(=O)O (atropisomer, axis not shown) [Compound 164] shows pEC50 equal to 6.32

---

System: HIV-IIIb
Experiment: Test A: Antiviral Assay in MT4 Cells
Format: cell-based
Conditions: Table 1; MT-4 cells infected with HIV-IIIb, 5 days of incubation, CellTiter-Glo; read-out: EC50
Please go through the items and note down their pEC50.
# pEC50: negative log10 of molar concentration; output just the value

The compound listed as Cc1cc2nc(-c3cccc(-c4ccc5c(cnn5C)c4)c3)sc2c(-c2ccc3c4c(ccnc24)CCO3)c1[C@H](OC(C)(C)C)C(=O)O (atropisomer, axis not shown) [Compound 163] shows pEC50 equal to 7.74

The compound listed as Cc1cc2nc(N3CC(F)(F)C3)sc2c(-c2ccc3c4c(ccnc24)CCO3)c1[C@H](OC(C)(C)C)C(=O)O (atropisomer, axis not shown) [Compound 53] shows pEC50 equal to 4.43

The compound listed as COC1CN(c2nc3cc(C)c([C@H](OC(C)(C)C)C(=O)O)c(-c4ccc5c6c(ccnc46)CCO5)c3s2)C1 (atropisomer, axis not shown) [Compound 55] shows pEC50 equal to 4.28
